- Experimental system: hDHFR (Homo sapiens, UniProt P00374)
- Sequence (P00374 1-187): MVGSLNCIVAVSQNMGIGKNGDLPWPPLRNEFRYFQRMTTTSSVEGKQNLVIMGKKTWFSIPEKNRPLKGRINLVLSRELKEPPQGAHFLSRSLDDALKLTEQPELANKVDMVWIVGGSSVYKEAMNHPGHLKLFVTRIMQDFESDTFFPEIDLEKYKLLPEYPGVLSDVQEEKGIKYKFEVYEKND
- Method description: DHFR enzyme inhibition (NADPH consumption at 340 nm), human DHFR
- Assay type: biochemical
- Applied conditions: 100 μM NADPH, 100 μM dihydrofolate, pH 7.0, 25° C., triplicate
Property label: IC50 (nM)
Answer in nM, number only, no unit symbol.

If you can, please state the reported IC50 value of CCc1nc(N)nc(N)c1C#CC(C)c1ccc(-c2ccccc2)nc1 (stereo not shown) .
688

IC50 lookup needed for CCc1nc(N)nc(N)c1C#CC(C)c1ccc(-c2ccc(C#N)cc2)cc1OC (stereo not shown) , thanks.
477

Fill in: IC50 of CCc1nc(N)nc(N)c1C#CC(C)c1ccc(-c2ccc(O)cc2)cc1OC (stereo not shown) is ___
136

Bench note: what IC50 did CCc1nc(N)nc(N)c1C#CC(C)c1ccc(-c2ccc(OC(N)=O)cc2)cc1OC (stereo not shown) show?
170

Look up IC50 for this compound: CCc1nc(N)nc(N)c1C#CC(C)c1ccc(-c2ccc(C)cc2)nc1 (stereo not shown)
625

Could you share which IC50 value was measured for CCc1nc(N)nc(N)c1C#CC(C)c1cnc(-c2ccccc2)nc1 (stereo not shown) ?
180

For the compound shown here, CCc1nc(N)nc(N)c1C#CC(C)c1ccc(-c2ccc(C(=O)OC)cc2)cc1OC (stereo not shown) , give the reported IC50.
49

----------
- Experimental system: CgDHFR (Candida glabrata)
- Sequence (Q6FPH0 entry or part of it): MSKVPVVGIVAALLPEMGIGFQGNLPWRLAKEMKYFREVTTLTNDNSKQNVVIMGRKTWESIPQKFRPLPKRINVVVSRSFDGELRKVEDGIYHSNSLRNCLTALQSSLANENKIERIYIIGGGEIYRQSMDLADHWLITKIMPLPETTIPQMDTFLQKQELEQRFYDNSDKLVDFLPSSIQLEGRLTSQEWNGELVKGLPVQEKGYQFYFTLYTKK
Property label: pIC50
// pIC50 here means minus log10 of the molar concentration (mol/L)

Item CCc1nc(N)nc(N)c1C#CC(C)c1cnc(-c2ccccc2)nc1 (stereo not drawn) [Compound 48] has what recorded pIC50?
7.66

# lookup: pIC50 of CCc1nc(N)nc(N)c1C#CC(C)c1ccc(-c2ccc(C)cc2)nc1 (stereo not drawn) [Compound 47]
7.57

What value of measured pIC50 is listed for CCc1nc(N)nc(N)c1C#CC(C)c1ccc(-c2ccccc2)nc1 (stereo not drawn) [Compound 46] ?
7.64

----------
- Experimental system: hDHFR (Homo sapiens, UniProt P00374)
- Sequence (P00374 1-187): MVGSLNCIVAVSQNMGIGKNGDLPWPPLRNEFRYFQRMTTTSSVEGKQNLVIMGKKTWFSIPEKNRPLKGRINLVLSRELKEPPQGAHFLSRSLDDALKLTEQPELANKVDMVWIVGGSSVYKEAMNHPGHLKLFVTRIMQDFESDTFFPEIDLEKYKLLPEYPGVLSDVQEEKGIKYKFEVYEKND
- Method description: DHFR enzyme inhibition (NADPH consumption at 340 nm), human DHFR
- Format: biochemical
- Applied conditions: pH 7
Property label: IC50
Form entry: enter the amount, then its unit.

Reported IC50 for hDHFR (Homo sapiens, UniProt P00374), given CCc1nc(N)nc(N)c1C#CC(C)c1ccc(-c2ccc(N(C)C)cc2)cc1OC (stereo not shown) ?
147 nM

----------
- Experimental system: CaDHFR (Candida albicans, UniProt P22906)
- Construct: made in house
- Method description: DHFR enzyme inhibition (NADPH consumption at 340 nm), C. albicans DHFR
- Format: biochemical
- Applied conditions: pH 7
Can you tell me pIC50 for the items I'm about to list?
# pIC50: negative log10 of molar concentration; output just the value

Tell me the measured pIC50 of CCc1nc(N)nc(N)c1C#CC(C)c1ccc(-c2ccc(C)cc2)nc1 (centres unmarked) [Compound 47] , please.
7.31

pIC50 for CCc1nc(N)nc(N)c1C#CC(C)c1ccc(-c2ccc(N(C)C)cc2)cc1OC (centres unmarked) [Compound 35] ?
7.19

----------
Property label: melting point

Suppose we examine the compound CCc1nc(N)nc(N)c1C#CC(C)c1cnc(-c2ccccc2)nc1 (stereo not drawn) ; what melting point value has been reported?
161.3 to 162.8 °C

What melting point value was documented for this compound, CCc1nc(N)nc(N)c1C#CC(C)c1ccc(-c2ccc(C)cc2)nc1 (stereo not drawn) ?
144 to 146.1 °C

Return reported melting point; argument: CCc1nc(N)nc(N)c1C#CC(C)c1ccc(-c2ccc(N(C)C)cc2)cc1OC (stereo not drawn)
135.2 to 136.1 °C

What measured melting point goes with CCc1nc(N)nc(N)c1C#CC(C)c1ccc(-c2ccc(C#N)cc2)cc1OC (stereo not drawn) ?
130.9 to 133.1 °C

Entry CCc1nc(N)nc(N)c1C#CC(C)c1ccc(-c2ccc(O)cc2)cc1OC (stereo not drawn) : reported melting point = ?
188.1 to 189.3 °C

Which melting point value is on record for CCc1nc(N)nc(N)c1C#CC(C)c1ccc(-c2ccc(C(=O)OC)cc2)cc1OC (stereo not drawn) ?
168.2 to 170.8 °C

----------
- Experimental system: CaDHFR (Candida albicans)
- Construct: made in house
- Sequence (P22906 1-192): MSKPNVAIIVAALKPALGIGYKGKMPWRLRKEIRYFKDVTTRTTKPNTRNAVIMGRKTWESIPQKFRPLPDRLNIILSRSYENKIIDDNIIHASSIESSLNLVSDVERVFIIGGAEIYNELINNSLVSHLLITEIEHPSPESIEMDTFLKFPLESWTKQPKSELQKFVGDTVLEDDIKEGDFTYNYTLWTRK
- Method description: DHFR enzyme inhibition (NADPH consumption at 340 nm), C. albicans DHFR
- Type: biochemical
- Applied conditions: 100 μM NADPH, 100 μM dihydrofolate, pH 7.0, 25° C., triplicate
Property label: IC50 (nM)
Enter your answer as a number in nM; do not include the unit.

For the compound shown here, CCc1nc(N)nc(N)c1C#CC(C)c1ccc(-c2ccc(O)cc2)cc1OC (centres unmarked) , give the reported IC50.
39

Would you kindly share the measured IC50 for CCc1nc(N)nc(N)c1C#CC(C)c1ccc(-c2ccc(C#N)cc2)cc1OC (centres unmarked) ?
50

Query (compound): CCc1nc(N)nc(N)c1C#CC(C)c1cnc(-c2ccccc2)nc1 (centres unmarked) ; field requested: IC50
37

Value lookup for IC50; key = CCc1nc(N)nc(N)c1C#CC(C)c1ccc(-c2ccc(OC(N)=O)cc2)cc1OC (centres unmarked)
18

Can you look up the measured IC50 of CCc1nc(N)nc(N)c1C#CC(C)c1ccc(-c2ccc(C(=O)OC)cc2)cc1OC (centres unmarked) for me?
46

----------
- System: Human MCF-10
- Method description: Mammalian cell cytotoxicity
- Format: cell-based
- Applied conditions: MCF10; Human MCF-10 cells; read-out: IC50 Human MCF-10
Property label: pIC50
Remember the convention: pIC50 equals -log10 of concentration in molar.

I have this compound here, CCc1nc(N)nc(N)c1C#CC(C)c1ccc(-c2ccc(C#N)cc2)cc1OC (stereo not drawn) [Compound 32] , and I need its recorded pIC50.
4.30

What value of pIC50 has been recorded for this entry: CCc1nc(N)nc(N)c1C#CC(C)c1cnc(-c2ccccc2)nc1 (stereo not drawn) [Compound 48]
3.67

Look up pIC50 for this compound: CCc1nc(N)nc(N)c1C#CC(C)c1ccc(-c2ccc(C(=O)OC)cc2)cc1OC (stereo not drawn) [Compound 34]
4.02
